- study_target: Tyrosine-protein kinase JAK2 (Homo sapiens)
- assay_info: Induction of JAK2 degradation in human Jurkat cells at 1 uM incubated for 6 hrs by Western blot analysis
- Format: cell-based
Active and inactive are the calls of the source. The rule behind the calls is not given here.
measured_property: Activity

CNC(=O)c1cnc(Nc2ccc(C(=O)NCCCCCCCCC(=O)N[C@H](C(=O)N3C[C@H](O)C[C@H]3C(=O)NCc3ccc(-c4scnc4C)cc3)C(C)(C)C)cn2)cc1Nc1cccc(C(=O)NC)c1OC; inactive
CNC(=O)c1cnc(Nc2ccc(C(=O)NCCCCCC(=O)N[C@H](C(=O)N3C[C@H](O)C[C@H]3C(=O)NCc3ccc(-c4scnc4C)cc3)C(C)(C)C)cn2)cc1Nc1cccc(C(=O)NC)c1OC; inactive
CNC(=O)c1cnc(Nc2ccc(C(=O)NCCCCCCCCCCCC(=O)N[C@H](C(=O)N3C[C@H](O)C[C@H]3C(=O)NCc3ccc(-c4scnc4C)cc3)C(C)(C)C)cn2)cc1Nc1cccc(C(=O)NC)c1OC; inactive
